Ref: the supplement of paper PMC9233669

System: biotinyl-Leu-oxazolone
Test: self-aminoacylation, catalytic enhancement (BLO) (fold over background); higher = more active; k-Seq, kA / k0A0; sequences stand for … in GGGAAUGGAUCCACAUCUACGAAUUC…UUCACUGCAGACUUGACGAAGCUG
Variants at the floor of the assay were thinned out.
Binary call on self-aminoacylation: MET from 2 upward, NOT MET beneath that.

**Q:** Is reported self-aminoacylation greater than or equal to 2 here: CCACAUUUCAAGCAAUUGGUC [Fam1B.1 aminoacylation ribozyme variant]
**A:** NOT MET

**Q:** Determine whether this sequence has self-aminoacylation no lower than 2: AUUACCCUUGUCAUCGCGUGA [Fam2.1 aminoacylation ribozyme variant]
**A:** MET

**Q:** Quick check: does AUUACCCUGGUCAUAGCGUGA [Fam2.1 aminoacylation ribozyme variant] have self-aminoacylation greater than or equal to 2?
**A:** MET

**Q:** Evaluate AAGUUCGCUACUAGUCGCAAG [Fam3.1 aminoacylation ribozyme variant] : self-aminoacylation at minimum 2?
**A:** NOT MET

**Q:** Quick check, self-aminoacylation >= 2? AUUCGCCUAGGUCAUCGGAUG [Fam2.2 aminoacylation ribozyme variant]
**A:** NOT MET

**Q:** Dear colleague, could you confirm whether CGACUUCAAACAAUCGGUCGG [Fam1A.1 aminoacylation ribozyme variant] has self-aminoacylation at or above 2?
**A:** MET

**Q:** Does the reported self-aminoacylation for CUAAUUCAAACAAUCGGUGUG [Fam1A.1 aminoacylation ribozyme variant] fall at or above the 2 mark?
**A:** NOT MET

**Q:** Threshold query (self-aminoacylation >= 2) on AAGUUUGCUAAUAGUCUCGAG [Fam3.1 aminoacylation ribozyme variant]
**A:** NOT MET

**Q:** Check this sequence for self-aminoacylation at or above 2: GUUCACCUAUGUCAUCGGGUG [Fam2.2 aminoacylation ribozyme variant]
**A:** MET

**Q:** Determine whether this sequence has self-aminoacylation no lower than 2: CUACUUCAAAAUAUCGGUCUG [Fam1A.1 aminoacylation ribozyme variant]
**A:** NOT MET

**Q:** Given the entry CCAUACUUAAAGCAAUCGGUC [Fam1B.1 aminoacylation ribozyme variant] , answer whether its self-aminoacylation meets or surpasses 2.
**A:** NOT MET

**Q:** # bool: self-aminoacylation of AAGUUUGCUGAUAGUCUCAAG [Fam3.1 aminoacylation ribozyme variant] >= 2
**A:** NOT MET

**Q:** hey, is self-aminoacylation for this one >= 2? AGUACCCUGGUCAUCAAGUGA [Fam2.1 aminoacylation ribozyme variant]
**A:** MET

**Q:** Would you say CUCCUUCAAACGAUCGGUCUG [Fam1A.1 aminoacylation ribozyme variant] shows self-aminoacylation at minimum 2?
**A:** NOT MET

**Q:** Textbook exercise: given the entry AGUCACCUAGGUAAUCGGGUG [Fam2.2 aminoacylation ribozyme variant] , state whether its self-aminoacylation is greater than or equal to 2.
**A:** MET

**Q:** Could you verify whether the entry CUACUUCAAAUAAUCGGUCAG [Fam1A.1 aminoacylation ribozyme variant] shows self-aminoacylation of no less than 2?
**A:** NOT MET

**Q:** Textbook exercise: given the entry AAGUUUGCUUAUGGUCGCAAG [Fam3.1 aminoacylation ribozyme variant] , state whether its self-aminoacylation is greater than or equal to 2.
**A:** NOT MET

**Q:** Confirm if self-aminoacylation reported for the sequence CAACACUUCAAGCAAUCGGGC [Fam1B.1 aminoacylation ribozyme variant] is 2 or above.
**A:** MET

**Q:** # bool: self-aminoacylation of AUUCACCAAGGUCACCGGGUG [Fam2.2 aminoacylation ribozyme variant] >= 2
**A:** MET

**Q:** Check this sequence for self-aminoacylation at or above 2: CCACAUUGCAAGCAAUCGGUC [Fam1B.1 aminoacylation ribozyme variant]
**A:** NOT MET

**Q:** Decide: is the reported value of self-aminoacylation for AUUACCCUGGUAAUCGGGUGA [Fam2.1 aminoacylation ribozyme variant] equal to or greater than 2?
**A:** MET

**Q:** In plain terms: is recorded self-aminoacylation at least 2 for CUUACCCUGAUCAUCGAGUGA [Fam2.1 aminoacylation ribozyme variant] ?
**A:** MET

**Q:** Quick check, self-aminoacylation >= 2? AGUACCCUGGCCAUCGAGUGA [Fam2.1 aminoacylation ribozyme variant]
**A:** MET

**Q:** Does self-aminoacylation meet or surpass 2 for AUUACCCUGGUCAUUGAGGGA [Fam2.1 aminoacylation ribozyme variant] ?
**A:** NOT MET

**Q:** Reported self-aminoacylation at or above 2? AAGAUUGCUAAUGGUCGCAAG [Fam3.1 aminoacylation ribozyme variant]
**A:** NOT MET

**Q:** Please indicate if the recorded self-aminoacylation for AUUCACUUAGGUCAUGGGGUG [Fam2.2 aminoacylation ribozyme variant] meets or exceeds 2.
**A:** MET

**Q:** Form field: self-aminoacylation at least 2? Entry: AUUAACAUAGGUCAUCGGGUG [Fam2.2 aminoacylation ribozyme variant]
**A:** MET

**Q:** // inclusive: self-aminoacylation at least 2? input: AAGGUUGCUAAUAGUCACAAG [Fam3.1 aminoacylation ribozyme variant]
**A:** NOT MET

**Q:** Would you say UCACACUUCACGCAAUCGGUC [Fam1B.1 aminoacylation ribozyme variant] shows self-aminoacylation at minimum 2?
**A:** NOT MET

**Q:** Given the entry CUACUUCAAAUAAUUGGUCUG [Fam1A.1 aminoacylation ribozyme variant] , answer whether its self-aminoacylation meets or surpasses 2.
**A:** NOT MET

**Q:** Does self-aminoacylation meet or surpass 2 for UAGUCUGCUAAUAGUCGCAAG [Fam3.1 aminoacylation ribozyme variant] ?
**A:** NOT MET

**Q:** Check this sequence for self-aminoacylation at or above 2: AAGUUUGCUAAUAGUCGUGAG [Fam3.1 aminoacylation ribozyme variant]
**A:** NOT MET

**Q:** # check: self-aminoacylation of CUACUUUAAACAGUCGGUCUG [Fam1A.1 aminoacylation ribozyme variant] is greater than or equal to 2
**A:** NOT MET

**Q:** Answer whether self-aminoacylation of CUACUUCAAGCAACCGGUCUG [Fam1A.1 aminoacylation ribozyme variant] is greater than or equal to 2.
**A:** NOT MET

**Q:** Hi, just wondering whether AUUCCCGUGGUCAUCGAGUGA [Fam2.1 aminoacylation ribozyme variant] shows self-aminoacylation of 2 or higher.
**A:** MET
